settings: buffer; pH 7.4; 200.0 µM
readout.type: log10 of solubility kinetic (log10 of the value in µg/mL)

{"columns": ["compound", "log10 of solubility kinetic"],
 "data": [
  ["CC(=O)N1CCN(C(=O)c2cc(C)nc3ccccc23)CC1", 1.53],
  ["O=C(/C=C/c1cccc(C(F)(F)F)c1)OCC(=O)N1CCN(c2ccccc2)CC1", 0.57],
  ["N#Cc1ccc(S(=O)(=O)NC2CCN(Cc3ccccc3)CC2)cc1", 1.63],
  ["O=C(NCCOc1ccccc1F)c1cc([N+](=O)[O-])ccc1N1CCOCC1", 1.74],
  ["O=C(COc1ccc2c(c1)CCC2)Nc1ccccn1", 1.15],
  ["O=C1COc2ccc(S(=O)(=O)N3CCCCC3)cc2N1", 1.64],
  ["CC(C)(C)N(Cc1ccccc1)C(=O)c1cccs1", 0.23],
  ["Cc1c(C(=O)NC(C)c2ccccn2)oc2c(Cl)cccc12 (stereo not drawn)", 1.39],
  ["CNC(=O)c1ccc(NC(=O)CC23CC4CC(CC(C4)C2)C3)cc1", 1.14],
  ["CN(Cc1ccccc1F)C(=O)c1sccc1-c1ccccc1", 1.15],
  ["COc1ccc(S(=O)(=O)N2CCOCC2)cc1NC(=O)CSc1nc(C)c(C)c(C)n1", 0.93],
  ["COc1ccc(O)c(CN2CCN(CCc3ccccc3)C(CCO)C2)c1 (stereo not drawn)", 1.73],
  ["CCCc1ccc(NS(=O)(=O)c2c(C)oc(C)c2C(=O)OC)cc1", 0.87],
  ["O=C(c1ccc([N+](=O)[O-])cc1)N1CCC(Cc2ccccc2)CC1", 1.44],
  ["CCc1ccc(OCC(=O)Nc2ccc3oc(=O)ccc3c2)cc1", 0.18],
  ["CC(C)=CC(=O)OCC(=O)NC1CCCc2ccccc21 (stereo not drawn)", 1.40],
  ["Cc1cccc(C)c1OCC(=O)NCC1CCCO1 (stereo not drawn)", 1.60],
  ["O=S(=O)(O)c1cccnc1SCc1ccccc1", 1.61],
  ["Oc1ccc(Cl)cc1CNc1cccc2cccnc12", -0.30],
  ["COc1cccc(CNC(=O)CCCc2c[nH]c3ccccc23)c1", 1.67],
  ["O=C(NCc1ccccc1)c1ccc2ccccc2n1", 1.42],
  ["CC(C)C(NS(=O)(=O)c1cc(C(=O)O)ccc1Cl)C(=O)O (stereo not drawn)", 1.65],
  ["Cc1ccc(S(=O)(=O)N2CCC(C(=O)NCCCN3CCCC3=O)CC2)cc1", 1.72]
]}

---

details: buffer; pH 7.4; 200.0 µM
readout.type: log10(solubility kinetic) (log10 of the value in µg/mL)

{"columns": ["chemical.structure", "log10(solubility kinetic)"],
 "data": [
  ["CSc1nccc(-c2c(-c3ccc(Cl)cc3)noc2C)n1", 0.66],
  ["O=C(OCC(=O)N1CCN(c2ccccc2)CC1)c1ccc[n+]([O-])c1", 1.65],
  ["Cc1cnc(C(=O)Oc2ccc(-c3ccccc3)cc2)cn1", 0.45],
  ["O=C(Nc1ccc(N2CCOCC2)cc1)c1cccc2ccccc12", 0.43],
  ["Cc1ccc(NC(=O)CCCc2ccccc2)nc1", 1.56],
  ["COC(=O)c1cc(NC(=O)COC(=O)CCc2nc3ccccc3c(=O)[nH]2)cc(C(=O)OC)c1", 1.26],
  ["O=C(NCCc1ccc(F)cc1)c1cc(=O)c2ccccc2o1", 0.97],
  ["O=c1c2[nH]cnc2n(-c2ccccc2)c(=O)n1Cc1ccccc1", 1.55]
]}

---

details: buffer; pH 7.4; 200.0 µM
# key: entry, value: solubility kinetic

{"columns": ["compound", "relation.sign", "solubility kinetic, µg/mL"],
 "data": [
  ["O=C(OCC(=O)c1c[nH]c2ccccc12)c1cncc(Br)c1", "=", 7.5],
  ["O=c1[nH]c(CSc2ccccc2)nc2c1oc1ccccc12", "=", 2.2],
  ["CCN(c1cccc2ccccc12)S(=O)(=O)c1cccs1", "=", 12.5],
  ["CC1CCN(S(=O)(=O)c2ccccc2)CC1", "=", 25.8],
  ["Cc1noc(NS(=O)(=O)c2ccc(NC(=O)c3ccc(F)cc3)cc2)c1C", ">", 58.4],
  ["CCN1CCCC1CNC(=O)C(=O)NC(C)C (stereo not given)", ">", 36.2],
  ["Cc1ccc(C2NC(=S)NC3=C2C(=O)CCC3)cc1 (stereo not given)", "=", 9],
  ["CN(C)c1ccc(/C=C/c2nc3ccccc3c(=O)n2CCO)cc1", "=", 40.7],
  ["COc1ccc(C)cc1NC(=S)Nc1ccccc1SC", "=", 10.5],
  ["CCCc1nc(-c2cc3ccccc3[nH]c2=O)no1", ">", 38.3],
  ["CC(=O)C1=C(O)C(=O)N(c2ccc(O)cc2)C1c1ccc(C)cc1 (stereo not given)", ">", 48.5],
  ["Cc1cccc(-c2cnn(-c3ccccc3)c2N)c1", ">", 37.4],
  ["Cc1nc(Cl)c(N=Cc2cccc([N+](=O)[O-])c2)c(Cl)n1", ">", 46.7],
  ["NC(=O)Cn1ccc(O)c(Cc2ccc(Cl)cc2Cl)c1=O", ">", 49.1],
  ["Cc1nnc(SCC(=O)NC2CCCCC2)n1N", ">", 40.4],
  ["CC1CC(C)CN(C(=O)C(C)N2CCN(S(=O)(=O)c3ccc(Br)s3)CC2)C1 (stereo not given)", "=", 29.7],
  ["COc1ccccc1CNC(=O)c1cccnc1", ">", 36.3],
  ["O=C(CN1C(=O)c2ccccc2C1=O)N(CCO)Cc1ccccc1", "=", 48.7],
  ["Cc1cccc(C(=O)NCCC(=O)NCc2ccccc2F)c1", ">", 47.2],
  ["CC(=O)c1ccc(Nc2nc(-c3cccnc3)cs2)cc1", "=", 0.9],
  ["CCCC(=O)N(Cc1cc(=O)[nH]c2ccccc12)c1ccccc1C", "=", 41.1],
  ["NS(=O)(=O)c1ccc(CCNC(=O)CSCc2ccccc2)cc1", "=", 42.6],
  ["Brc1cccc(-c2cnco2)c1", "=", 4],
  ["COc1cc2c(cc1OC)C(COc1ccc(F)cc1)NCC2 (stereo not given)", "=", 43.8],
  ["O=C(Nc1nonc1-c1ccc(Cl)cc1)c1ccco1", ">", 43.5]
]}

---

# key: entry, value: solubility kinetic
settings: buffer; pH 7.4; 200.0 µM

{"columns": ["molecule", "relation.sign", "solubility kinetic (µg/mL)"],
 "data": [
  ["Cc1ccsc1-c1cc(C(=O)O)c2c(ccc3ccccc32)n1", ">", 47.9],
  ["CCOC(=O)N(C)S(=O)(=O)c1ccccc1[N+](=O)[O-]", "=", 42.9],
  ["Br.C1=C(c2ccco2)N2CCN=C2S1", "=", 38.8],
  ["Fc1cccc(Cc2noc(CN3CCSCC3)n2)c1", ">", 44],
  ["CCc1ccccc1NC(=O)C1CCCN(c2nccc(C)n2)C1 (stereo unspecified)", "=", 3.4],
  ["CCc1ccc2[nH]c(C)c(CN3CCCCCC3)c(=O)c2c1", ">", 44.8]
]}

---

conditions: buffer; pH 7.4; 200.0 µM
Class Satisfied: solubility kinetic at least 20 µg/mL. Class Not satisfied: solubility kinetic below 20 µg/mL.

{"columns": ["compound", "label"],
 "data": [
  ["CC(CCc1ccccc1)NC(=O)CCc1cn(C)c2ccccc12 (stereo unspecified)", "Not satisfied"],
  ["COc1ccc(NC(=O)CCCC(=O)NCCc2ccc(OC)c(OC)c2)cc1", "Satisfied"],
  ["Cc1ccc(S(=O)(=O)N(Cc2ccccc2)C(C)C)cc1", "Not satisfied"],
  ["CN(C(=O)COC(=O)C1CCN(S(=O)(=O)c2ccc(Cl)cc2)CC1)C1CCS(=O)(=O)C1 (stereo unspecified)", "Not satisfied"],
  ["O=C(CNC(=O)c1ccc(F)cc1)NCc1ccccn1", "Satisfied"],
  ["COc1ccc(CC(=O)NC(=S)Nc2cccc(C)c2)cc1", "Not satisfied"],
  ["CNC(=O)NC(O)C(Cl)(Cl)Cl (stereo unspecified)", "Satisfied"],
  ["O=c1[nH]c(N2CCCCCC2)nc2ncn(Cc3ccccc3)c12", "Not satisfied"],
  ["CCc1ccc(C(=O)Nc2cc(S(=O)(=O)N3CCOCC3)ccc2N2CCOCC2)cc1", "Not satisfied"],
  ["COc1ccc(NC(=O)CSc2cc(C)ccc2C)cn1", "Satisfied"],
  ["O=C(O)c1cc(N2C(=O)CCC2=O)ccc1Cl", "Satisfied"]
]}

---

conditions: buffer; pH 7.4; 200.0 µM

{"columns": ["compound", "result.units", "relation.sign", "solubility kinetic"],
 "data": [
  ["CCC(=NCC1CCCO1)c1c(O)n(-c2ccccc2C)c(=O)[nH]c1=O (stereo not given)", "µg/mL", ">", 53.6],
  ["O=c1[nH]c2ccccc2c(O)c1-[n+]1ccccc1.[Cl-]", "µg/mL", "=", 40.5],
  ["O=C(COC(=O)c1ccc[nH]c1=O)Nc1ccc(N2CCCCC2)cc1", "µg/mL", ">", 53.3],
  ["Br.CN(/N=C/c1ccncc1)C1=NCCN1", "µg/mL", ">", 42.6],
  ["CCOc1ccc(S(=O)(=O)NC(C)C(=O)NCc2ccncc2)cc1 (stereo not given)", "µg/mL", ">", 54.5],
  ["O=C(Nc1cccc([N+](=O)[O-])c1)N1CCCCCC1", "µg/mL", "=", 37.5],
  ["O=C(CNC(=O)COc1ccccc1)NCc1cccnc1", "µg/mL", ">", 44.9],
  ["CN(C)c1ccc(C(=O)NC2(N3CCC3=O)CCCC2)cc1", "µg/mL", ">", 45.2],
  ["CN(C)c1ccc(C(=O)NCc2ccc3c(c2)CCO3)cc1", "µg/mL", "=", 34.3],
  ["Cc1cccc(C(=O)OCC(=O)NC(=O)Cc2ccccc2)c1O", "µg/mL", "=", 5.8],
  ["Cc1ccc(NS(=O)(=O)N2CCOCC2)cc1Cl", "µg/mL", ">", 43.6],
  ["Nc1ncnc(Nc2cccc(F)c2)n1", "µg/mL", "=", 30.6],
  ["Cc1ccc(SCC(=O)NCc2ccccc2C)cc1", "µg/mL", "=", 35.7],
  ["Clc1nc(CN2CCOCC2)nc2sc3c(c12)CCC3", "µg/mL", "=", 44.5],
  ["O=C(CC(c1ccccc1)c1ccccc1)Nc1ccc(C(=O)O)cc1", "µg/mL", ">", 51.8],
  ["CCc1ccc(OCC(=O)N2CC(C(=O)OC)Oc3ccccc32)cc1 (stereo not given)", "µg/mL", "=", 36.6],
  ["COc1ccc(Nc2nc(N)c(C(=O)c3ccc(OC)cc3)s2)cc1", "µg/mL", "=", 1.4],
  ["C=CCc1cc(C)ccc1OCCCn1ccnc1.O=C(O)C(=O)O", "µg/mL", "=", 29.1],
  ["CC(CN1CCCCC1)OC(=O)c1ccc2c(c1)OCCO2.Cl (stereo not given)", "µg/mL", ">", 51.3],
  ["O=C(/C=C/c1ccccc1)Nc1cccnc1", "µg/mL", ">", 33.6],
  ["C=CCOc1ccc(/C=C2\\SC(=S)N(CCC(=O)O)C2=O)cc1", "µg/mL", "=", 48],
  ["CC(C)(C)c1ccc(OCCCn2ccnc2)cc1", "µg/mL", "=", 25.5],
  ["O=C(Nc1cccc(F)c1)c1ccc2ncsc2c1", "µg/mL", "=", 39.8],
  ["O=C(NC1CC2CCCC(C1)N2C(=O)Nc1ccccc1)C1CC1 (stereo not given)", "µg/mL", "=", 4.2],
  ["COc1ccc(C(C)=O)cc1Cc1c(O)[nH]c(=S)[nH]c1=O", "µg/mL", ">", 46]
]}
